Where do the numbers come from? From paper PMC8226839.

Assay: in vitro
Assay type: cell-based
Conditions: human, 3D Phenion OS-REp reconstructed epidermis model
Square brackets hold non-standard residues; d marks the D form. Peptide text beside a SMILES is read from it.
Overview of reported viability at 35 min, 2000 µg/mL across a group of compounds:
Answer with the figure and its unit, nothing else.

Compound	viability at 35 min, 2000 µg/mL
CC[C@H](C)[C@H](NC(=O)[C@@H]1CCCN1C(=O)[C@H](CC(C)C)NC(=O)[C@H](CC(C)C)NC(=O)[C@H](CCCCN)NC(=O)[C@@H](N)CCCCN)C(=O)N[C@H](C(=O)N[C@@H](CCCCN)C(=O)N[C@@H](CC(N)=O)C(=O)N[C@@H](CC(C)C)C(=O)N[C@@H](CC(C)C)C(=O)N[C@@H](CCCCN)C(=O)N[C@@H](CO)C(=O)N[C@@H](CC(C)C)C(=O)N[C@@H](CC(C)C)C(N)=O)C(C)C [TB_KKG6K] (H-KKLLPIVKNLLKSLL-NH2)	94.2%

Alright, here's another compound for you.
### Prompt Entry CC[C@H](C)[C@H](NC(=O)[C@@H]1CCCN1C(=O)[C@H](CC(C)C)NC(=O)[C@H](CC(C)C)NC(=O)[C@@H](CCCCN)NC(=O)[C@H](N)CCCCN)C(=O)N[C@H](C(=O)N[C@H](CCCCN)C(=O)N[C@@H](CC(N)=O)C(=O)N[C@@H](CC(C)C)C(=O)N[C@@H](CC(C)C)C(=O)N[C@H](CCCCN)C(=O)N[C@@H](CO)C(=O)N[C@@H](CC(C)C)C(=O)N[C@@H](CC(C)C)C(N)=O)C(C)C [D-Lys_TB_KKG6K] (H-[dK][dK]LLPIV[dK]NLL[dK]SLL-NH2) has what viability at 35 min, 2000 µg/mL?
### Response 91.4%
